System: HCC-2998 colon
Test: NCI tumour cell line growth inhibition, 48 h
# maps each entry to its GI50
Experimental readout: GI50

| Molecule | Experimental readout | Result |
| --- | --- | --- |
| Cc1cc(N2CCOCC2)nc(N(CCCNc2ccnc3cc(Cl)ccc23)Cc2ccco2)n1 | GI50 | 2.97 µM |
| [N-]=[N+]=NCCCn1c2c(c3ccc([N+](=O)[O-])cc3c1=O)C(=O)c1cc(F)ccc1-2 | GI50 | 14.5 µM |
| Oc1ccc(C2c3ccccc3Oc3ccccc32)c2cccnc12 | GI50 | 1.89 µM |
| C/C(O)=C(\C#N)C(=O)Nc1ccc(C(F)(F)F)cc1 | GI50 | 45.2 µM |
| CCn1c(-c2nonc2N)nc2c(C#CC(C)(C)O)ncc(OC[C@H]3CCCNC3)c21 | GI50 | 21.2 µM |
| Cc1ccc(C(=O)/C(=C\c2ccc([N+](=O)[O-])cc2)S(=O)Cc2ccc(Cl)cc2)cc1 (stereo not given) | GI50 | 1.82 µM |
| Fc1cccc(-n2ccc(-c3ccccc3)nc2=S)c1 | GI50 | 18.1 µM |
| Cc1ccc(NC(=O)CSc2nnc3n(Cc4ccccc4)c(=O)c4c(C)c(C(N)=O)sc4n23)cc1 | GI50 | > 100 µM |
| CCOC(=O)C#Cc1c(C(=O)OCC)nnn1Cc1ccc([N+](=O)[O-])cc1 | GI50 | 18.3 µM |
| CCc1ccc(C(=Nc2ccc(N(C)C(=O)CN3CCN(C)CC3)cc2)c2c(O)[nH]c3ccc(C(=O)OC)cc23)cc1 | GI50 | 0.587 µM |

----------
System: KM12 colon
Test: NCI tumour cell line growth inhibition, 48 h; in the data active = GI50 below about 0.43 µM; inactive = the rest
Outcomes: active, inactive

| Molecule | Assigned class |
| --- | --- |
| CC(CN(C)C)Oc1ccccc1NC1=C(Cl)C(=O)C(Nc2ccccc2OC(C)CN(C)C)=C(Cl)C1=O (configuration not stated) | inactive |
| CC1(C)NCCC[C@]2(C)[C@H]3CC[C@@H]4[C@H]5[C@H](C(=O)/C=C/c6ccccn6)CC[C@]5(CO)CC[C@@]4(C)[C@]3(C)CC[C@@H]12 | inactive |
| C/C(=C\c1cc(C(F)(F)F)n(-c2ccc(N)cc2)n1)[C@@H]1C[C@@H]2O[C@]2(C)CCC[C@H](C)[C@H](O)[C@@H](C)C(=O)C(C)(C)[C@@H](O)CC(=O)O1 | active |
| O=C1C=CC(=O)N1c1cccc(N2C(=O)C=CC2=O)c1 | inactive |
| NS(=O)(=O)CC1CC[CH-]CC1.[Cl-].[Cl-].[Cl-].[Cl-].[Cl-].[Sb+5].c1ccncc1 | inactive |
| C=C(CO)[C@@H]1CC[C@]2(COC3CCCCO3)CC[C@]3(C)[C@H](CC[C@@H]4[C@@]5(C)C=C(C=O)C(=O)C(C)(C)[C@@H]5CC[C@]43C)[C@@H]12 (some centres not stated) | inactive |
| COC(=O)c1cc2c3ccccc3[nH]c2c2sccc12 | inactive |
| CC(=O)O[C@H]1[C@@H]2OC(=O)C(CSc3ccccc3)[C@@H]2C[C@H]2O[C@]2(C)CC/C=C(\C)CCC[C@@H]1C (some centres not stated) | inactive |
| N#Cc1cc(S(=O)(=O)Nc2nnc(-c3ccccc3)c(-c3ccccc3)n2)c(SCc2ccccc2)cc1Cl | inactive |
| O=C1c2ccccc2-c2c1c1c(O)cccc1n2Cc1ccccn1 | inactive |
| CC([C@H]1CCC2C3CCC4C[C@@H](N)CC[C@]4(C)C3CC[C@@]21C)N(C)C (some centres not stated) | inactive |
| CC1(N)CCN(c2cnc(-c3cccc(Cl)c3Cl)c(N)n2)CC1 | inactive |
| CCOC(=O)C#Cc1c(C(=O)OCC)nnn1Cc1ccc([N+](=O)[O-])cc1 | inactive |
| O=C(N/N=C/c1ccc(O)cc1O)c1cccc(Nc2ccnc(C(F)(F)F)c2)c1 | inactive |
| OCCNc1nc(Nc2ccc(Cl)c(Cl)c2)nc2ccccc12 | inactive |
| CC(=[N-])N1CCC[C@@H](Nc2c3ccccc3nc3ccccc23)C1.[Cl][Pt].[NH-]CCC[NH-] | inactive |
| Cc1cc2c(C(N)=O)c(N)n(-c3c(C)ccc(O)c3C)c2nc1C | inactive |

----------
# maps each entry to its TGI
Tested on: 786-0 renal
Test: NCI tumour cell line growth inhibition, 48 h

| Smiles repr | Assay system | Qual | TGI (µM) |
| --- | --- | --- | --- |
| Cc1cc(-c2ccccn2)cc(C)c1/C=C/c1cncc(-c2nn[nH]n2)c1 | 786-0 renal | > | 25 |
| Cc1ccc2c(ccc(/C=C\c3cc(C)c4cccnc4c3O)[n+]2C)c1 | 786-0 renal | > | 100 |
| O=C(N/N=C/c1ccc(O)cc1O)c1cccc(Nc2ccnc(C(F)(F)F)c2)c1 | 786-0 renal | = | 10.6 |
| C/C(O)=C(\C#N)C(=O)Nc1ccc(C(F)(F)F)cc1 | 786-0 renal | > | 100 |
| OC(c1ccc2c(c1)OCO2)c1ccc2c(c1)OCO2 | 786-0 renal | > | 100 |
| Cc1cc2c(C(N)=O)c(N)n(-c3c(C)ccc(O)c3C)c2nc1C | 786-0 renal | > | 100 |
| CN(C(=O)C1=CCC2(CC1)OCCO2)c1ccccc1I | 786-0 renal | > | 100 |
| CCc1ccc(C(=Nc2ccc(N(C)C(=O)CN3CCN(C)CC3)cc2)c2c(O)[nH]c3ccc(C(=O)OC)cc23)cc1 | 786-0 renal | = | 1.86 |
| CSc1snc2sc3c(Cl)nnnc3c12 | 786-0 renal | = | 29.7 |
| CN1CCN(c2ccc(NC(=O)c3cncnc3Nc3ccc(OCc4ccccn4)c(Cl)c3)cc2)CC1 | 786-0 renal | = | 1.68 |

----------
Test system: SNB-19 CNS
Test: NCI tumour cell line growth inhibition, 48 h
*1 amine or outer side, *2 acyl side, *3 side chain or, on linkers, in order; H or OH if unused. Where a SMILES comes first, the peptide text is derived from it. Bridges are numbered along the chain shown (N, C = ends). [ ]: non-standard residue; d: D form. The star is where a group is joined. X34 = O=C(C(CCCCNO[*:3])N[*:1])[*:2]; Fmoc = O=C(OCC1c2ccccc2-c2ccccc21)*
# maps each entry to its TGI

| Compound | TGI |
| --- | --- |
| C[N+](C)(C)CC(=O)N/N=C(\C(=O)NC1=C(Cl)C(=O)c2ccccc2C1=O)C(C#N)c1nc(-c2ccc([N+](=O)[O-])cc2)cs1 (stereo unspecified) | 39.8 µM |
| O=C(NC(Cc1cnc[nH]1)C(=O)N1CCCC1)C1CCCC1 (stereo unspecified) | > 100 µM |
| O=C(N/N=C/c1ccc(O)cc1O)c1cccc(Nc2ccnc(C(F)(F)F)c2)c1 | > 72.6 µM |
| O=C1c2c(ccc3c2CCC3)CC12Cc1ccccc1C2 | > 100 µM |
| CCCCCCCCCC(=O)OCC1OC(n2cc(F)c(=O)[nH]c2=O)C(NC(=O)OCc2ccccc2)C(OC(=O)CCCCCCCCC)C1O (stereo unspecified) | > 100 µM |
| CC1(C)NCCC[C@]2(C)[C@H]3CC[C@@H]4[C@H]5[C@H](C(=O)/C=C/c6ccccn6)CC[C@]5(CO)CC[C@@]4(C)[C@]3(C)CC[C@@H]12 | 19.8 µM |
| NC(=O)CNC(=O)C1CCCN1C(=O)C1CCCCNOC(=O)CCC(NC(=O)OCC2c3ccccc3-c3ccccc32)C(=O)NC(Cc2c[nH]c3ccccc23)C(=O)N1 (stereo unspecified) (Fmoc-EW[X34]PG-NH2; ester 1-3; configuration not given here) | > 100 µM |
| O=c1cc(N=Nc2ccc(Cl)c(Cl)c2)[nH]c(=O)[nH]1 | 26.6 µM |
| CCN(CC)c1ccc2nc3ccc(N=Nc4c(O)ccc5ccccc45)cc3[n+](-c3ccccc3)c2c1 | > 100 µM |
| COc1cc2c(cc1OC)C(=O)C1(C2)[C@H](c2ccccc2)C2C(=O)c3cc(OC)c(OC)cc3C2[C@H]1c1ccccc1 (stereo partly specified) | > 100 µM |
| C=C(CO)[C@@H]1CC[C@]2(COC3CCCCO3)CC[C@]3(C)[C@H](CC[C@@H]4[C@@]5(C)C=C(C=O)C(=O)C(C)(C)[C@@H]5CC[C@]43C)[C@@H]12 (stereo partly specified) | 1.44 µM |
| Cc1cccc(C(C)(C)C)c1NC(=O)CCc1nc(=S)[nH][nH]1 | > 100 µM |
| CC(C)Oc1cccc(N2C(=NCCc3c[nH]c4ccccc34)Nc3ccncc3S2(=O)=O)c1 | > 100 µM |
| NC(=O)SCCC(N)C(=O)O (stereo unspecified) | > 100 µM |
| CCCCCCCCCCCCCCCCCCNc1nc(=O)n(C2CC(O)C(COP(=O)(O)OCC3OC(n4ccc(N)nc4=O)C(O)C3O)O2)cc1F (stereo unspecified) | > 100 µM |
| NC1=NN(c2ccccc2)C(=O)C1C(=O)C(=O)Nc1nccs1 (stereo unspecified) | > 100 µM |
